test: CCTE_Shafer_MEA_acute_network_burst_percentage: CCTE's Neural Acute Assay for Percentage of Network Bursts, Shafer Lab (AID 2284022);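 further: curves fitted for loss so actives lower network burst percentage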
Calls of active or inactive are those of the source. How the source made its calls: active means hit-call score of the fitted dose curve at least 0.9, where 1 is the maximum; inactive means score below 0.9.
Parameter call: string, one of active, inactive

-- ask In this assay, the call recorded for `[Cd+2].[Cl-].[Cl-]` was what?
-- reply inactive

-- ask For `O=C(O)CNCP(=O)(O)O` , what call appears in the results of this test?
-- reply inactive

-- ask # outcome recorded in this test, key = `CC1(C)[C@H](C=C(Cl)Cl)[C@@H]1C(=O)O[C@@H](C#N)c1cccc(Oc2ccccc2)c1`
-- reply active

-- ask I'd appreciate the recorded outcome for `CC1(C)[C@H](C(=O)O[C@H](C#N)c2cccc(Oc3ccccc3)c2)[C@@H]1C=C(Br)Br` from this test.
-- reply active

Let us examine a further case.
-- ask State the result this test recorded for `C#CCN(C)[C@H](C)Cc1ccccc1` .
-- reply inactive
